A collection of compounds and their measured viability at 28.5 h, 10 µM
experiment: in vitro; settings: human, hela cells, % viability
Answer format: numeric, % implied, no suffix.

Examples from the recorded data:
C[S+]([O-])c1nc2ccccc2s1 (centres unmarked) ... 93.5
CCC(=O)N1CCC[C@H]1Cn1nc(-c2ccc(F)cc2)ccc1=O ... 81.1
O=C(c1cccs1)N(Cc1ccco1)c1ccc(O)cc1 ... 88.9

Input line: Query: viability at 28.5 h, 10 µM; subject: CC1CCCCN1C(=O)C1C2CCC3(CC(=O)c4ccccc4O3)C21 (centres unmarked)
Output line: 101

Input line: Query: viability at 28.5 h, 10 µM; subject: CCCn1nc(C)c(-c2cncn2CCn2nc(C)c(C)c2C)c1C
Output line: 83.5

Input line: Query: viability at 28.5 h, 10 µM; subject: COC(=O)c1cc(C)sc1NC(=S)Nc1ccn(Cc2ccc(Br)cc2)n1
Output line: 99.6

Input line: Query: viability at 28.5 h, 10 µM; subject: CC(C)c1ccc(S(=O)(=O)N(C)Cc2cccnc2)cc1
Output line: 108

Input line: Query: viability at 28.5 h, 10 µM; subject: COc1ccc(-c2cnc(Nc3ccc(N4CCOCC4)cc3)c3nccn23)cn1
Output line: 92

Input line: Query: viability at 28.5 h, 10 µM; subject: CC(NCc1ccncc1)=C1C(=O)c2ccccc2C1=O
Output line: 105

Input line: Query: viability at 28.5 h, 10 µM; subject: Cc1cc(Cl)ccc1NC(=O)COCC(=O)O
Output line: 104
